Target: ER α-glucosidase GANAB (from Pompe disease Fibroblast lysates) (Homo sapiens)
Construct: Cellular homogenates of Pompe fibroblasts (1 mg mL^−1) were used as protein source for GANAB; endogenous in cells; host or cells: Pompe disease fibroblasts (homogenate)
Sequence (Q14697 29-944): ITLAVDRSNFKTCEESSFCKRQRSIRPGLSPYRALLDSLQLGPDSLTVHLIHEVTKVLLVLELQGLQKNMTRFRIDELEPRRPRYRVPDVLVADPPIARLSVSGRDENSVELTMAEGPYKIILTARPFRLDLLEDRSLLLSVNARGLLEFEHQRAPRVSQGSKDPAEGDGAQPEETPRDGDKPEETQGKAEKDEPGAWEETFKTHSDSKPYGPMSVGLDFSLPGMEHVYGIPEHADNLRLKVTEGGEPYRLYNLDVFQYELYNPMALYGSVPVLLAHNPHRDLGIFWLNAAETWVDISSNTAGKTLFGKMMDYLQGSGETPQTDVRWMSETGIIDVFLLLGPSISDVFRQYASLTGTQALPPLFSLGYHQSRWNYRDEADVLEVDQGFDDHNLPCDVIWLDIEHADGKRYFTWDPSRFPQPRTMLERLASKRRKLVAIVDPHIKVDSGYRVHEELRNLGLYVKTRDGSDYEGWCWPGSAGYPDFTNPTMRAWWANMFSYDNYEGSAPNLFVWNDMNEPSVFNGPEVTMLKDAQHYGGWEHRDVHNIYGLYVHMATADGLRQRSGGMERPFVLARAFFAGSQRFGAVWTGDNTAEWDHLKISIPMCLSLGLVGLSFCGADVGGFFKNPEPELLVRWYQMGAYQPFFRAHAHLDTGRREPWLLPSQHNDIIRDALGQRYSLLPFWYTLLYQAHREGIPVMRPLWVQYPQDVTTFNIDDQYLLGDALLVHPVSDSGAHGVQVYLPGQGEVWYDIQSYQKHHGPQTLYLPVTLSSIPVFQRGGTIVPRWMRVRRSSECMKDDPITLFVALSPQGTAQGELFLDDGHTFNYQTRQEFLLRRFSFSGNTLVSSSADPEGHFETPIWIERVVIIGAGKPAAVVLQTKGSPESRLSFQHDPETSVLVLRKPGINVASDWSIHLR
Sequence (P14314 15-528 partner): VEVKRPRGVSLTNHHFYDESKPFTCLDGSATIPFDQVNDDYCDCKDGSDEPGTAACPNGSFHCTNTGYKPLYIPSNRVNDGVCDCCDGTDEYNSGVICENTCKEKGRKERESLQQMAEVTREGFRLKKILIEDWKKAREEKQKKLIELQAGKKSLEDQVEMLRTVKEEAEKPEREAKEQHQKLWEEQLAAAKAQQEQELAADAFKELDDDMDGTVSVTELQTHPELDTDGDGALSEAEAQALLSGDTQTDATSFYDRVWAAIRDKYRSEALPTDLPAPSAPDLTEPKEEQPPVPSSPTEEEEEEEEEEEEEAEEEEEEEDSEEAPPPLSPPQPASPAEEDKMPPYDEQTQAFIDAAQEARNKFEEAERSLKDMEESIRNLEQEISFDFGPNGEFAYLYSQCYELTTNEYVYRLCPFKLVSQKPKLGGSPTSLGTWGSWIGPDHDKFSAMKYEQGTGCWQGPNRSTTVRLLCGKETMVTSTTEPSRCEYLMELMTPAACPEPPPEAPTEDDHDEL
Test: fluorogenic substrate (4MU-α-D-glucopyranoside) assay on GANAB in Pompe fibroblast homogenates
Assay type: biochemical
Conditions: Table S2; 4-MU alpha glucoside substrate; listed as 19; read-out: IC50 on GANAB
readout.kind: IC50
Lab note: write values as number then unit, every time.

IC50 in this record for `CCCCOCCCCCN1C[C@H](O)[C@@H](O)[C@H](O)[C@H]1CO` : 3.6 µM

---

Molecular target: ER α-glucosidase GANAB (from Pompe disease Fibroblast lysates) (Homo sapiens)
Construct: Cellular homogenates of Pompe fibroblasts (1 mg mL^−1) were used as protein source for GANAB; endogenous in cells; host or cells: Pompe disease fibroblasts (homogenate)
Experiment: fluorogenic substrate (4MU-α-D-glucopyranoside) assay on GANAB in Pompe fibroblast homogenates
Assay type: biochemical
Details: Table S2; 4-MU alpha glucoside substrate; read-out: IC50 on GANAB
# IC50 values compiled below
Expressed in nM, but write only the number.

Previously resolved entries follow.
record.smiles | unit.spec | IC50
OC[C@@H]1[C@@H](O)[C@H](O)[C@@H](O)CN1CCCCCOCc1ccc(-c2ccncc2)cc1 | nM | 1300
COc1cccc(-c2ccc(COCCCCCN3C[C@H](O)[C@@H](O)[C@H](O)[C@H]3CO)cc2)c1 | nM | 390

# next molecule below
Record `CC(C)(C)COCCOCCN1C[C@H](O)[C@@H](O)[C@H](O)[C@H]1CO` . Reported IC50: 1700

---

Biological target: human recombinant lysosomal α-glucosidase GAA (Myozyme) (Homo sapiens, UniProt P10253)
Construct: purchased Genzyme
Assay: fluorogenic substrate (4MU-α-D-glucopyranoside) assay on rhGAA
Type: biochemical
Conditions: Table S2; 4-MU alpha glucoside substrate; listed as 281; read-out: IC50 on rhGAA
readout.kind: pIC50
Keep it numeric: pIC50 is minus log10 of the concentration in mol/L.

Entry under test: CCCCCOCCCCCN1C[C@H](O)[C@@H](O)[C@H](O)[C@H]1CO [#ID 281] . Its pIC50 was 6.27

---

Target: human recombinant lysosomal α-glucosidase GAA (Myozyme) (Homo sapiens)
Construct: purchased Genzyme
Assay: fluorogenic substrate (4MU-α-D-glucopyranoside) assay on rhGAA
Assay type: biochemical
Settings: Table S2; 4-MU alpha glucoside substrate; listed as 19; read-out: IC50 on rhGAA
readout.kind: pIC50
Friendly reminder that pIC50 comes from taking -log10 of the concentration in mol/L.

So for CCCCOCCCCCN1C[C@H](O)[C@@H](O)[C@H](O)[C@H]1CO [#ID 19] , the logged pIC50 turned out to be 6.46

---

Molecular target: ER α-glucosidase GANAB (from Pompe disease Fibroblast lysates) (Homo sapiens)
Construct: Cellular homogenates of Pompe fibroblasts (1 mg mL^−1) were used as protein source for GANAB; endogenous in cells; host or cells: Pompe disease fibroblasts (homogenate)
Sequence (Q14697 29-944): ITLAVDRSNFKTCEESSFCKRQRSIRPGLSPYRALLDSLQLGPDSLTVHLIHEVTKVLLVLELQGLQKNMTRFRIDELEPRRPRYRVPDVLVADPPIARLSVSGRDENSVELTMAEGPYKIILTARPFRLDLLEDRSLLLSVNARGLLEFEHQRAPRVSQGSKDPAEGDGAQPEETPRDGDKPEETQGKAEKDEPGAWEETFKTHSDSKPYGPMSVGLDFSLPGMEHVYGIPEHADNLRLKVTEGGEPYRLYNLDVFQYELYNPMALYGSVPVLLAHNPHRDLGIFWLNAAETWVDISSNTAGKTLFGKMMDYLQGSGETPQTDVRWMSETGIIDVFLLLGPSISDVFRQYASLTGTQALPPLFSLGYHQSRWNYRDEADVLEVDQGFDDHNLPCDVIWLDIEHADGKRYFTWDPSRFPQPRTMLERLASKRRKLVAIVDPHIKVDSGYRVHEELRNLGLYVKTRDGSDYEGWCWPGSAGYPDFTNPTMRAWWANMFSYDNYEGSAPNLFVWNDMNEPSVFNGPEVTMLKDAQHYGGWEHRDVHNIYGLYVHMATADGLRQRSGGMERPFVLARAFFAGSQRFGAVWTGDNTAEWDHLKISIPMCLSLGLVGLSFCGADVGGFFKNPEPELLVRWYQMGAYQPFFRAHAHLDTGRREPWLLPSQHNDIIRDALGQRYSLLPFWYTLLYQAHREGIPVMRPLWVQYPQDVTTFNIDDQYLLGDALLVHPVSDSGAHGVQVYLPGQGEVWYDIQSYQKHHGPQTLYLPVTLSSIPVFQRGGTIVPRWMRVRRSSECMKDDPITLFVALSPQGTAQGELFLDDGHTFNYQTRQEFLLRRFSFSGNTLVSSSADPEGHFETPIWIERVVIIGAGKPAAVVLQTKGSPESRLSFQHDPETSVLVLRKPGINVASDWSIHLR
Sequence (P14314 15-528 partner): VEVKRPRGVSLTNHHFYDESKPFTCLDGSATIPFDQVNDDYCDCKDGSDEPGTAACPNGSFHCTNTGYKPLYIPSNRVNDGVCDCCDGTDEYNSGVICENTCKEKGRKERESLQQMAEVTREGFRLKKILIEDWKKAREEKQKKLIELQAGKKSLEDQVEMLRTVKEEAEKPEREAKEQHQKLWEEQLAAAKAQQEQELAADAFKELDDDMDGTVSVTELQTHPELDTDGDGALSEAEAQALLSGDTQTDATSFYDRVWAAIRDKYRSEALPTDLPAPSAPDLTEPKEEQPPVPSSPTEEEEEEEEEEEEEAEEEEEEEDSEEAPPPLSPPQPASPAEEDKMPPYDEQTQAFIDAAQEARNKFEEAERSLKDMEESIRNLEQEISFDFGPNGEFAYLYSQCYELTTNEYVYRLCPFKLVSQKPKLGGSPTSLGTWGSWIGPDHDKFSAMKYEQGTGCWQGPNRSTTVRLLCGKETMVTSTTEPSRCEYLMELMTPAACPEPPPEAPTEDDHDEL
Test: fluorogenic substrate (4MU-α-D-glucopyranoside) assay on GANAB in Pompe fibroblast homogenates;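 also: inhibitor preincubated 30 min at 37 °C with homogenate, then GANAB activity read after 2 h with 3.0 mM fluorogenic substrate in McIlvaine buffer containing 0.1% BSA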
Assay type: biochemical
Settings: Table S2; 4-MU alpha glucoside substrate; read-out: IC50 on GANAB
readout.kind: pIC50
On this scale, pIC50 is minus log10 of a concentration expressed in M (mol/L).

Answered cases to consult:
compound | readout.kind | measured
OC[C@@H]1[C@@H](O)[C@H](O)[C@@H](O)CN1CCCCCOCc1ccc(-c2ccccc2)cc1C(F)(F)F [#ID 118] | pIC50 | 6.32
OC[C@@H]1[C@@H](O)[C@H](O)[C@@H](O)CN1CCCCCOCc1ccccc1-c1ccccc1 [#ID 339] | pIC50 | 6.21
CC(C)=CCC/C(C)=C/CC/C(C)=C/COCCCCCN1C[C@H](O)[C@@H](O)[C@H](O)[C@H]1CO [#ID 90] | pIC50 | 5.60
OC[C@@H]1[C@@H](O)[C@H](O)[C@@H](O)CN1CCCCCOCC(COCCCCCN1C[C@H](O)[C@@H](O)[C@H](O)[C@H]1CO)C12CC3CC(CC(C3)C1)C2 [#ID 197] | pIC50 | 5.89

Query OC[C@@H]1[C@@H](O)[C@H](O)[C@@H](O)CN1CCCCCOCc1ccc(-c2ccccc2)cc1 [#ID 343] on ER α-glucosidase GANAB (from Pompe disease Fibroblast lysates) (Homo sapiens); pIC50 returned: 6.60

Record OC[C@@H]1[C@@H](O)[C@H](O)[C@@H](O)CN1CCCCCCOCC12CC3CC(CC(C3)C1)C2 [#ID 141] / ER α-glucosidase GANAB (from Pompe disease Fibroblast lysates) (Homo sapiens), pIC50 recorded as 6.24

Measured on ER α-glucosidase GANAB (from Pompe disease Fibroblast lysates) (Homo sapiens), C[C@H](OCCCCCN1C[C@H](O)[C@@H](O)[C@H](O)[C@H]1CO)c1ccc(-c2ccccc2)cc1 [#ID 347] has a documented pIC50 of 6.40

Let me check: OC[C@@H]1[C@@H](O)[C@H](O)[C@@H](O)CN1CCCCCOCc1ccc2ccccc2c1 [#ID 58] , system ER α-glucosidase GANAB (from Pompe disease Fibroblast lysates) (Homo sapiens), measured pIC50 is 6.07

Reported pIC50 (ER α-glucosidase GANAB (from Pompe disease Fibroblast lysates) (Homo sapiens)) for entry OC[C@@H]1[C@@H](O)[C@H](O)[C@@H](O)CN1CCCCCOCc1ccc(-c2ccccc2)cc1F [#ID 35] is 6.15

Field pIC50 (ER α-glucosidase GANAB (from Pompe disease Fibroblast lysates) (Homo sapiens)), entry OC[C@@H]1[C@H](O)[C@H](O)[C@@H](O)CN1CCCCCOCC12CC3CC(CC(C3)C1)C2 [#ID 150] : 4.92

Form: item OC[C@@H]1[C@@H](O)[C@H](O)[C@@H](O)CN1CCCC(F)(F)COCc1ccc(-c2ccccc2)cc1 [#ID 349] ; test system ER α-glucosidase GANAB (from Pompe disease Fibroblast lysates) (Homo sapiens); pIC50: 5.36

Response field pIC50 (ER α-glucosidase GANAB (from Pompe disease Fibroblast lysates) (Homo sapiens)) for item CC(C)CCCC(C)C1CCC2C3CC=C4CC(OCCCCCN5CC(O)C(O)C(O)C5CO)CCC4(C)C3CCC12C (stereo not drawn) [#ID 22] : 5.22

Entry Cc1ccccc1-c1ccc(COCCCCCN2C[C@H](O)[C@@H](O)[C@H](O)[C@H]2CO)cc1 [#ID 326] , ER α-glucosidase GANAB (from Pompe disease Fibroblast lysates) (Homo sapiens) data, pIC50 value: 6.16

Value (pIC50, ER α-glucosidase GANAB (from Pompe disease Fibroblast lysates) (Homo sapiens)) for record OC[C@@H]1[C@@H](O)[C@H](O)[C@@H](O)CN1CCCCCOCc1cc2ccccc2c2ccccc12 [Compound 15] = 5.70

Here OC[C@@H]1[C@@H](O)[C@H](O)[C@@H](O)CN1CCCCCOCc1ccc(-c2cccnc2)cc1 [#ID 318] was tested on ER α-glucosidase GANAB (from Pompe disease Fibroblast lysates) (Homo sapiens), and its pIC50 came to 5.77
